# Test system: kochia
# Protocol Description: Test C postemergence
# Format: in vivo, Kochia scoparia
# Assay Setup: Postemergence, 31 g ai/ha; scale 0 to 100 (0 no effect, 100 complete control); 13 to 15 days
I'd appreciate it if you could supply Plant response rating, Kochia values for the items below.

Value sought for every listed compound: Plant response rating, Kochia.
1. N#Cc1cccc(Oc2ncc(Br)cn2)c1-n1cc(I)cn1
2. N#Cc1cccc(Oc2ncc(F)cn2)c1-n1cc(Cl)cn1
3. FCc1cccc(Oc2ncc(Cl)cn2)c1-n1cc(Br)cn1
4. Clc1cnc(Oc2cccc(Br)c2-n2cc(Br)cn2)nc1

Response given:
1. 95
2. 80
3. 70
4. 90
